Sequence of the target: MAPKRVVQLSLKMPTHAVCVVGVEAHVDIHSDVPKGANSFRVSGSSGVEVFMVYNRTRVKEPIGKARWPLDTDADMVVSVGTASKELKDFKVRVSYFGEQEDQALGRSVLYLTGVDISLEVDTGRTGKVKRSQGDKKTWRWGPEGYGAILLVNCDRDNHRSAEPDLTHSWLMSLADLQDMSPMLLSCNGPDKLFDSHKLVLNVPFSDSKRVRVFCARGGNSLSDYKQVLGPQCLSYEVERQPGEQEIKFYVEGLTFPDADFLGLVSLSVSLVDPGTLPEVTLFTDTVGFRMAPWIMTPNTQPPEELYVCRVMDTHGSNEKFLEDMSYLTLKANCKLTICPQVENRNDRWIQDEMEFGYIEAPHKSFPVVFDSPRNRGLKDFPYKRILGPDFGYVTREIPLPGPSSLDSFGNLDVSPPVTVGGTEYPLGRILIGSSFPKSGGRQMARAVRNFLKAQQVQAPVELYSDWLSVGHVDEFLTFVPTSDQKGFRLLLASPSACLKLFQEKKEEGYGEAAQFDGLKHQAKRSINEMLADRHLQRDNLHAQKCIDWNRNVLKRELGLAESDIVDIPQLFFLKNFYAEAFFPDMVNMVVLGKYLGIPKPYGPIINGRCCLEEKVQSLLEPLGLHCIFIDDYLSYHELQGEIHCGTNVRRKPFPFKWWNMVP
measured endpoint: Ki (µM)
Note: unit µM is implicit; provide only the numeric part.

Cn1cccc1C(=O)N[C@@H](CCn1ccnn1)C(=O)NCc1ccccc1 :: 112

# input for lookup
Data request, read-out Ki, for O=C(N[C@@H](CCn1ccnn1)C(=O)NCc1ccccc1)c1ccco1
1090

---

Test: Tmax in C57BL/6 mouse brain at 50 mg/kg, ip administered as single dose measured up to 360 mins by UPLC-MS analysis
Format: ADME, organism-based
measured endpoint: Tmax (min)
Give just the numeric value; min need not be written.

Look up Tmax for this compound: Cl.Cn1cccc1C(=O)N[C@@H](CCn1ccnc1)C(=O)NCc1ccccc1
15

---

Assay: Cmax in C57BL/6 mouse brain at 50 mg/kg, ip administered as single dose measured up to 360 mins by UPLC-MS analysis
Format: ADME, organism-based
Set-up: dose 50 mg/kg, route intraperitoneal
measured endpoint: Cmax (ng/mL)
Lab book: enter the figure in ng/mL, no units written.

Looking for the measured Cmax of Cl.Cn1cccc1C(=O)N[C@@H](CCn1ccnc1)C(=O)NCc1ccccc1 , can you help?
170
